All figures here come from paper PMC5854716.

Tested on: mouse L929 fibroblast
assay-explanation: Cell viability assay (MTT), L929
Assay type: cell-based
recorded-conditions: 62.5 µg/ml, 24 h
Provide the recorded Viability L929 for the entries that follow.
Give bare numbers, in %.

Consider the reported Viability L929 for these molecules:
So what Viability L929 did `C/C(=N\Nc1nc(-c2ccc3[nH]c(=O)oc3c2)cs1)c1ccc(Nc2nc(N)nc(N)n2)cc1` get with mouse L929 fibroblast?
108.10

Test system mouse L929 fibroblast; read-out Viability L929; what value for `C/C(=N\Nc1nc(-c2ccc(NS(C)(=O)=O)cc2)cs1)c1ccc(Nc2nc(N)nc(N)n2)cc1` ?
102.92

Field: Viability L929 (mouse L929 fibroblast). Entry: `C/C(=N\Nc1nc(-c2cc3ccccc3oc2=O)cs1)c1ccc(Nc2nc(N)nc(N)n2)cc1`
109.54

More entries:
Can you look up Viability L929 on mouse L929 fibroblast for `CC(=O)Nc1ccc(-c2csc(N/N=C(\C)c3ccc(Nc4nc(N)nc(N)n4)cc3)n2)cc1` ?
103.01

* * *

Provide the recorded viability at 24 h, 125 µg/ml for the entries that follow.
assay-explanation: Cell viability assay (MTT), L929
Assay type: cell-based, Mus musculus
recorded-conditions: mouse, L929 fibroblast cells, 125.0 µg/ml
One number for each entry, in %.

// known answers, use as guide
Find the recorded viability at 24 h, 125 µg/ml belonging to `C/C(=N\Nc1nc(-c2ccc([N+](=O)[O-])cc2)cs1)c1ccc(Nc2nc(N)nc(N)n2)cc1` and report it.
104

Which viability at 24 h, 125 µg/ml value is on record for `C/C(=N\Nc1nc(-c2ccc(Br)cc2)cs1)c1ccc(Nc2nc(N)nc(N)n2)cc1` ?
113

So what does the record say about viability at 24 h, 125 µg/ml for `C/C(=N\Nc1nc(-c2ccc(C)cc2)cs1)c1ccc(Nc2nc(N)nc(N)n2)cc1` ?
118

***
Which measured viability at 24 h, 125 µg/ml value corresponds to `C/C(=N\Nc1nc(-c2ccc(Cl)cc2)cs1)c1ccc(Nc2nc(N)nc(N)n2)cc1` ?
118

* * *

System: mouse L929 fibroblast
assay-explanation: Cell viability assay (MTT), L929
Format: cell-based
recorded-conditions: 1.8 µg/ml, 24 h
quantity-measured: Viability L929 (%)
One number for each entry, in %.

See these solved cases before continuing.
Name the reported Viability L929 value associated with the compound `CC(=O)Nc1ccc(-c2csc(N/N=C(\C)c3ccc(Nc4nc(N)nc(N)n4)cc3)n2)cc1`
102.12

Entry under review: `C/C(=N\Nc1nc(-c2cc3ccccc3oc2=O)cs1)c1ccc(Nc2nc(N)nc(N)n2)cc1` . Reported Viability L929?
102.21

Fill in: Viability L929 of `C/C(=N\Nc1nc(-c2ccc3[nH]c(=O)oc3c2)cs1)c1ccc(Nc2nc(N)nc(N)n2)cc1` is ___
109.00

Now consider the entry below.
So what's the measured Viability L929 for this one? `C/C(=N\Nc1nc(-c2ccc(NS(C)(=O)=O)cc2)cs1)c1ccc(Nc2nc(N)nc(N)n2)cc1`
106.36

* * *

System: mouse L929 fibroblast
assay-explanation: Cell viability assay (MTT), L929
Assay type: cell-based
recorded-conditions: 7.8 µg/ml, 24 h
Provide the recorded Viability L929 for the entries that follow.
Give bare numbers, in %.

If you can, please state the reported Viability L929 value of `C/C(=N\Nc1nc(-c2ccc(NS(C)(=O)=O)cc2)cs1)c1ccc(Nc2nc(N)nc(N)n2)cc1` .
101.86

Please supply Viability L929 for each of the following items, keeping them in order.
1. CC(=O)Nc1ccc(-c2csc(N/N=C(\C)c3ccc(Nc4nc(N)nc(N)n4)cc3)n2)cc1
2. C/C(=N\Nc1nc(-c2ccc3[nH]c(=O)oc3c2)cs1)c1ccc(Nc2nc(N)nc(N)n2)cc1
3. C/C(=N\Nc1nc(-c2cc3ccccc3oc2=O)cs1)c1ccc(Nc2nc(N)nc(N)n2)cc1

1. 98.86
2. 101.74
3. 96.25

* * *

System: VERO cells
assay-explanation: Cell viability assay (MTT), VERO
Format: cell-based, Cercopithecus aethiops
recorded-conditions: 62.5 µg/ml, 24 h
quantity-measured: Viability VERO (%)
One number for each entry, in %.

Solved entries (count: 3):
Test system VERO cells; read-out Viability VERO; what value for `C/C(=N\Nc1nc(-c2cc3ccccc3oc2=O)cs1)c1ccc(Nc2nc(N)nc(N)n2)cc1` ?
103.77

Enter reported Viability VERO observed with VERO cells for `C/C(=N\Nc1nc(-c2ccc3[nH]c(=O)oc3c2)cs1)c1ccc(Nc2nc(N)nc(N)n2)cc1`
97.33

# returns recorded Viability VERO (system: VERO cells) for `C/C(=N\Nc1nc(-c2ccc(NS(C)(=O)=O)cc2)cs1)c1ccc(Nc2nc(N)nc(N)n2)cc1`
97.76

Next:
VERO cells / Viability VERO / `CC(=O)Nc1ccc(-c2csc(N/N=C(\C)c3ccc(Nc4nc(N)nc(N)n4)cc3)n2)cc1` : value?
94.25

* * *

assay-explanation: Cell viability assay (MTT), VERO
Assay type: cell-based, Cercopithecus aethiops
recorded-conditions: African green monkey (Cercopithecus aethiops), VERO kidney epithelial cells, 3.9 µg/ml
Please provide measured viability at 24 h, 3.9 µg/ml for the entries that follow.
One number for each entry, in %.

Lab note: each compound below needs its viability at 24 h, 3.9 µg/ml filled in.
1. C/C(=N\Nc1nc(-c2ccc(F)cc2)cs1)c1ccc(Nc2nc(N)nc(N)n2)cc1
2. C/C(=N\Nc1nc(-c2ccc([N+](=O)[O-])cc2)cs1)c1ccc(Nc2nc(N)nc(N)n2)cc1
3. C/C(=N\Nc1nc(-c2ccc(I)cc2)cs1)c1ccc(Nc2nc(N)nc(N)n2)cc1
4. C/C(=N\Nc1nc(-c2ccc(Br)cc2)cs1)c1ccc(Nc2nc(N)nc(N)n2)cc1
5. C/C(=N\Nc1nc(-c2ccccc2)cs1)c1ccc(Nc2nc(N)nc(N)n2)cc1
6. C/C(=N\Nc1nc(-c2ccc(Cl)cc2)cs1)c1ccc(Nc2nc(N)nc(N)n2)cc1
7. C/C(=N\Nc1nc(-c2ccc(C)cc2)cs1)c1ccc(Nc2nc(N)nc(N)n2)cc1
8. C/C(=N\NC(N)=S)c1ccc(Nc2nc(N)nc(N)n2)cc1

1: 100; 2: 106; 3: 97; 4: 90.1; 5: 99.3; 6: 90.1; 7: 99; 8: 97.3

# get_value(readout='viability at 24 h, 3.9 µg/ml', item= `C/C(=N\Nc1nc(-c2ccc(Cl)c(Cl)c2)cs1)c1ccc(Nc2nc(N)nc(N)n2)cc1` )
93.9

* * *

assay-explanation: Cell viability assay (MTT), L929
Assay type: cell-based, Mus musculus
recorded-conditions: mouse, L929 fibroblast cells, 3.9 µg/ml
quantity-measured: viability at 24 h, 3.9 µg/ml (%)
Give bare numbers, in %.

Would you mind telling me what viability at 24 h, 3.9 µg/ml value was observed for `C/C(=N\NC(N)=S)c1ccc(Nc2nc(N)nc(N)n2)cc1` ?
111

For `C/C(=N\Nc1nc(-c2ccc(I)cc2)cs1)c1ccc(Nc2nc(N)nc(N)n2)cc1` , what is its reported viability at 24 h, 3.9 µg/ml?
99.1

May I ask what viability at 24 h, 3.9 µg/ml has been recorded for `C/C(=N\Nc1nc(-c2ccc(F)cc2)cs1)c1ccc(Nc2nc(N)nc(N)n2)cc1` ?
105

Query: viability at 24 h, 3.9 µg/ml; subject: `C/C(=N\Nc1nc(-c2ccc(C)cc2)cs1)c1ccc(Nc2nc(N)nc(N)n2)cc1`
98.2

// batch mode: one viability at 24 h, 3.9 µg/ml value per listed entry
1. C/C(=N\Nc1nc(-c2ccc(Br)cc2)cs1)c1ccc(Nc2nc(N)nc(N)n2)cc1
2. C/C(=N\Nc1nc(-c2ccc(Cl)cc2)cs1)c1ccc(Nc2nc(N)nc(N)n2)cc1
3. C/C(=N\Nc1nc(-c2ccc(Cl)c(Cl)c2)cs1)c1ccc(Nc2nc(N)nc(N)n2)cc1
4. C/C(=N\Nc1nc(-c2ccc([N+](=O)[O-])cc2)cs1)c1ccc(Nc2nc(N)nc(N)n2)cc1
5. C/C(=N\Nc1nc(-c2ccccc2)cs1)c1ccc(Nc2nc(N)nc(N)n2)cc1

99.9
99.4
96.1
100
106

* * *

Tested on: Toxoplasma gondii BK strain
assay-explanation: T. gondii tachyzoite intracellular proliferation in VERO host cells ([3H]uracil incorporation)
Format: cell-based
recorded-conditions: Toxoplasma gondii; 0.9 µg/ml, VERO host cells
Source text: […] Tachyzoites of T. gondii, BK strain, were maintained in female C57BL/6 (H-2^b) and BALB/c (H-2^d) mice (with genetically determined high and low susceptibility, respectively to Toxoplasma infection) via serial intraperitoneal inoculation of 10^5–10^6 parasites per mouse in phosphate-buffered saline (PBS). […] The final pellet was resuspended in IMDM, quantified in a Burker’s chamber, and used in experimental assays. […]
Hi there, I'd appreciate the recorded activity at 0.9 µg/mL for every entry that follows.
Numbers only, in %.

For every record below, what is its activity at 0.9 µg/mL?
1. C/C(=N\Nc1nc(-c2ccc(Br)cc2)cs1)c1ccc(Nc2nc(N)nc(N)n2)cc1
2. C/C(=N\Nc1nc(-c2ccc(F)cc2)cs1)c1ccc(Nc2nc(N)nc(N)n2)cc1
3. C/C(=N\Nc1nc(-c2ccc(C)cc2)cs1)c1ccc(Nc2nc(N)nc(N)n2)cc1
4. C/C(=N\Nc1nc(-c2ccc(Cl)cc2)cs1)c1ccc(Nc2nc(N)nc(N)n2)cc1
5. C/C(=N\Nc1nc(-c2ccc(I)cc2)cs1)c1ccc(Nc2nc(N)nc(N)n2)cc1
6. C/C(=N\NC(N)=S)c1ccc(Nc2nc(N)nc(N)n2)cc1

[102, 102, 102, 100, 103, 100]

Fill in activity at 0.9 µg/mL for each of the 3 molecules listed.
1. C/C(=N\Nc1nc(-c2ccc([N+](=O)[O-])cc2)cs1)c1ccc(Nc2nc(N)nc(N)n2)cc1
2. C/C(=N\Nc1nc(-c2ccc(Cl)c(Cl)c2)cs1)c1ccc(Nc2nc(N)nc(N)n2)cc1
3. C/C(=N\Nc1nc(-c2ccccc2)cs1)c1ccc(Nc2nc(N)nc(N)n2)cc1

[103, 101, 100]
